System: TAB165
experiment_summary: qHTS profiling for inhibitors of Plasmodium falciparum proliferation (AID 504749); also: nearly all actives have a fitted effect of over 60% in size
condition_description: P. falciparum in erythrocytes, SYBR Green DNA, 72 h; series mostly up to 28.7 µM
Records with an inconclusive call do not appear. Calls of active or inactive are those of the source. Calls follow the shape of the dose curve; as a rule, active = well fitted inhibition curve with a large enough effect; inconclusive = small, poorly fitted or top-dose-only effect; inactive = flat fitted curve, though single readings scatter.
Pick one and only one: label 1 (active), label 0 (inactive)

Ask | Name the outcome recorded for NC(N)=Nc1nc(CSCC/C(N)=N/S(N)(=O)=O)cs1 in the assay.
Reply | label 0

Ask | Lab log entry: O=C(O)c1c(Cl)c(Cl)c(Cl)c(Cl)c1-c1c2cc(I)c(=O)c(I)c-2oc2c(I)c(O)c(I)cc12 — outcome as called in the assay?
Reply | label 0

Ask | Which outcome was entered for the molecule CCN(CC)CCOC(=O)c1ccc(N)cc1 in this test?
Reply | label 0

Ask | What is the recorded call for this molecule in the test? O=C(O)c1cc(-c2ccccc2)nc2ccccc12
Reply | label 0

Ask | // outcome(item) with item = NCCS
Reply | label 0

Ask | State the result this test recorded for CCN(CC)CCNC(=O)c1ccc(N)cc1 .
Reply | label 0

Ask | Record request — test call for CCCNC(=O)NS(=O)(=O)c1ccc(Cl)cc1
Reply | label 0

Ask | What did the test return for O=C(O)Cc1cccc2ccccc12 ?
Reply | label 0

Ask | # fetch the recorded call for O=C1NC(=O)C(c2ccccc2)(c2ccccc2)N1 here
Reply | label 0

Ask | Could you check what this test reported for CC1=C(/C=C/C(C)=C/C=C/C(C)=C/C(=O)Nc2ccc(O)cc2)C(C)(C)CCC1 ?
Reply | label 1

Ask | Call for entry COc1ccccc1N1CCN(CCCNc2cc(=O)n(C)c(=O)n2C)CC1 :
Reply | label 0

Ask | Please indicate how the test categorized CC(=O)CCCCn1c(=O)c2c(ncn2C)n(C)c1=O .
Reply | label 0

* * *

experimental_target: Furin (Homo sapiens) (UniProt P09958)
Sequence (P09958 whole entry, looked up): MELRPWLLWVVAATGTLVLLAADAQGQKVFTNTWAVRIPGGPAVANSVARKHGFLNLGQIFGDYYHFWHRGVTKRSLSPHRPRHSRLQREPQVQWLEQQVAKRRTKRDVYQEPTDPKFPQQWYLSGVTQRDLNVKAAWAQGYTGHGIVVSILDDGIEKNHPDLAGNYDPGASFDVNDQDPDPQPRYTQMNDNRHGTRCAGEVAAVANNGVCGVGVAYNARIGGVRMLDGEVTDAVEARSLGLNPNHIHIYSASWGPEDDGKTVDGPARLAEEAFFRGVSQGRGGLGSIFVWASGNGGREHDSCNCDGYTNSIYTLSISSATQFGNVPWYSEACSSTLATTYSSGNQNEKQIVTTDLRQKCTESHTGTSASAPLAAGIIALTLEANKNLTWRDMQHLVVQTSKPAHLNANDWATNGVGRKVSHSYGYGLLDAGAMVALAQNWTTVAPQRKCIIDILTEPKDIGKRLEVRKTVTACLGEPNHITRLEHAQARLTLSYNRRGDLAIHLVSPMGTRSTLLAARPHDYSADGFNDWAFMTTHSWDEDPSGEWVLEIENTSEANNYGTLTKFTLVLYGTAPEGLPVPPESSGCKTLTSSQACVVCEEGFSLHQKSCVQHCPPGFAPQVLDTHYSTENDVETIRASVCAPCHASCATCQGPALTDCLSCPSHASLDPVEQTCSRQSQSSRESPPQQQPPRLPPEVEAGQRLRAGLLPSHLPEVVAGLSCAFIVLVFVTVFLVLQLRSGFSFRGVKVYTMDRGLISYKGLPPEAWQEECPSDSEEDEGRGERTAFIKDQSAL
experiment_summary: Furin counterscreen qHTS for Zika virus inhibitors (AID 1347149); also: nearly all actives have a fitted effect of over 70% in size
condition_description: furin enzymatic counterscreen, fluorogenic substrate; series mostly up to 57.5 µM
Results filed as inconclusive are left out. The source made the active and inactive calls. Calls follow the shape of the dose curve; as a rule, active = well fitted inhibition curve with a large enough effect; inconclusive = small, poorly fitted or top-dose-only effect; inactive = no such curve, though single readings can be large or run the other way.
Field 'call' accepts active, inactive

Ask | Dear colleague, could you share the recorded outcome for CC=CCC(C)C(O)C1C(=O)NC(CC)C(=O)N(C)CC(=O)N(C)C(CC(C)C)C(=O)NC(C(C)C)C(=O)N(C)C(CC(C)C)C(=O)NC(C)C(=O)NC(C)C(=O)N(C)C(CC(C)C)C(=O)N(C)C(CC(C)C)C(=O)N(C)C(C(C)C)C(=O)N1C (stereo not given) when you have a moment?
Reply | active

Ask | Status in this test for COc1ccc2cc(-c3nc(-c4ccc(S(C)=O)cc4)[nH]c3-c3ccncc3)ccc2c1 (stereo not given) ?
Reply | active

Ask | Any idea what this test logged for CC(=O)Nc1ccc([C@H](C)C(=O)Nc2ncc(C(C)C)s2)cc1 ?
Reply | inactive

Ask | Any idea what this test logged for NC(=O)c1ccc2nc(-c3ccc(Oc4ccc(Cl)cc4)cc3)[nH]c2c1 ?
Reply | active

Ask | Lab log entry: CC1CCC(C(=O)N(c2cc(C#CC(C)(C)C)sc2C(=O)O)C2CCC(O)CC2)CC1 (stereo not given) — outcome as called in the assay?
Reply | inactive

Ask | # outcome recorded in this test, key = CC1(C)CCC(CN2CCN(c3ccc(C(=O)NS(=O)(=O)c4ccc(NCC5CCOCC5)c([N+](=O)[O-])c4)c(Oc4cnc5[nH]ccc5c4)c3)CC2)=C(c2ccc(Cl)cc2)C1
Reply | inactive

Ask | Identify the outcome logged in this assay for the compound shown: O=C(O)c1c(Cl)c(Cl)c(Cl)c(Cl)c1-c1c2cc(I)c(=O)c(I)c-2oc2c(I)c(O)c(I)cc12
Reply | inactive

Ask | How did this test come out for NC(=O)c1cccc2[nH]c(-c3ccc([C@H]4CCCN4)cc3F)nc12 ?
Reply | active

Ask | I'd appreciate the recorded outcome for O=c1c(O)c(-c2ccc(O)cc2)oc2cc(O)cc(O)c12 from this test.
Reply | inactive

Ask | Hi team, can someone confirm the assay call for C[C@H](NC(=O)C(=O)Nc1ccccc1C(C)(C)C)C(=O)N[C@@H](CC(=O)O)C(=O)COc1c(F)c(F)cc(F)c1F ?
Reply | inactive
